src = patent US11685732B2

- MEASURED_TARGET: UniProt Q9H7Z6
- Sequence (Q9H7Z6 other isoform, or with tags, fused parts or gaps): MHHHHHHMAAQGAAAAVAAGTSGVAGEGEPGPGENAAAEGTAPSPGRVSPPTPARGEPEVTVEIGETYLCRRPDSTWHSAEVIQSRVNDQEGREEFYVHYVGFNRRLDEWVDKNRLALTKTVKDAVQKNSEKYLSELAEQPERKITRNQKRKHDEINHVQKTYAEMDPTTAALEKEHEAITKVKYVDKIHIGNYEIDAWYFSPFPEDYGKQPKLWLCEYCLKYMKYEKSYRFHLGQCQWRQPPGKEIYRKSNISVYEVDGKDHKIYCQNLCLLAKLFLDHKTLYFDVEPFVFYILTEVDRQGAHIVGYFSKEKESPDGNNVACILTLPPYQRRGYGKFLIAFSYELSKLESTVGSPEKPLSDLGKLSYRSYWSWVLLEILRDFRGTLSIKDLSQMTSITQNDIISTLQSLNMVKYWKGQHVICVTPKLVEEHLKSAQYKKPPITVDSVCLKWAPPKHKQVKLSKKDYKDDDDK
- EXPERIMENT: KAT-8 biochemical inhibition assay (SAMDI mass spectrometry)
ASSAY_READOUT: IC50

Q: Would you kindly share the measured IC50 for Cn1cnc(-c2cc(Cl)c(F)c(C(=O)NNS(=O)(=O)CC3CCCN(C(=O)C4CCOCC4)C3)c2)c1 (stereo not shown) [Compound I-32] ?
Result: > 100 µM

Q: What do we get for Cn1cnc(-c2cc(Cl)c(F)c(C(=O)NNS(=O)(=O)c3cn(C)nn3)c2)c1 [Compound I-69] ?
Result: 10 to 50 µM

Q: What do we get for Cn1cnc(-c2cc(Cl)c(F)c(C(=O)NNS(=O)(=O)C[C@H]3C[C@H]4CC[C@@H]3O4)c2)c1 [Compound I-298] ?
Result: 10 to 50 µM

Q: What do we get for COc1ccc(CN(C)C(=O)N2CC[C@@H](CS(=O)(=O)NNC(=O)c3cc(-c4cn(C)cn4)cc(Cl)c3F)C2)cc1 [Compound I-179] ?
Result: 10 to 50 µM
